Target: CDK4 (Homo sapiens, UniProt P11802+Q16531)
Assay: CDK4 percentage degradation in Calu-1 cells (Table 6)
Type: cell-based
Design: Cells that express cyclin D1-3 and CDK4/6 proteins were treated with heterobifunctional compounds; endogenous in cells; host or cells: Calu-1
Details: 200 nM, 16 hours
Sequence (P11802 2-303 limits assumed): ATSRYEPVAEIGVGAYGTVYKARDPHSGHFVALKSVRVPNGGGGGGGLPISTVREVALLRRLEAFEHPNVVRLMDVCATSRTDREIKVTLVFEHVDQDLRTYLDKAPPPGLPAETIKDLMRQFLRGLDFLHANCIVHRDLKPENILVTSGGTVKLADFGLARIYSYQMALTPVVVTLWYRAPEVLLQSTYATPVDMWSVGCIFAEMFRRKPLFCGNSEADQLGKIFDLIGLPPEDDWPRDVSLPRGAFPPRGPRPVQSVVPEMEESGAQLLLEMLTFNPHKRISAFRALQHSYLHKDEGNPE
Sequence (P24385 whole entry partner): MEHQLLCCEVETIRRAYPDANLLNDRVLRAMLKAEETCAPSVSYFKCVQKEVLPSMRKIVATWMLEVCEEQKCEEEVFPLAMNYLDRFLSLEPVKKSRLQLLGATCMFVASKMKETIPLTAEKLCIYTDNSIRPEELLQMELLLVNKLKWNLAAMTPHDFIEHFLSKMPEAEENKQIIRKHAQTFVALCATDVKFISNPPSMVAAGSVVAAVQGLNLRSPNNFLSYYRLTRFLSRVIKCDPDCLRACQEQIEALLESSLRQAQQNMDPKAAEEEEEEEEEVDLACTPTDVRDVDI
Sequence (Q16531 2-1140 limits assumed): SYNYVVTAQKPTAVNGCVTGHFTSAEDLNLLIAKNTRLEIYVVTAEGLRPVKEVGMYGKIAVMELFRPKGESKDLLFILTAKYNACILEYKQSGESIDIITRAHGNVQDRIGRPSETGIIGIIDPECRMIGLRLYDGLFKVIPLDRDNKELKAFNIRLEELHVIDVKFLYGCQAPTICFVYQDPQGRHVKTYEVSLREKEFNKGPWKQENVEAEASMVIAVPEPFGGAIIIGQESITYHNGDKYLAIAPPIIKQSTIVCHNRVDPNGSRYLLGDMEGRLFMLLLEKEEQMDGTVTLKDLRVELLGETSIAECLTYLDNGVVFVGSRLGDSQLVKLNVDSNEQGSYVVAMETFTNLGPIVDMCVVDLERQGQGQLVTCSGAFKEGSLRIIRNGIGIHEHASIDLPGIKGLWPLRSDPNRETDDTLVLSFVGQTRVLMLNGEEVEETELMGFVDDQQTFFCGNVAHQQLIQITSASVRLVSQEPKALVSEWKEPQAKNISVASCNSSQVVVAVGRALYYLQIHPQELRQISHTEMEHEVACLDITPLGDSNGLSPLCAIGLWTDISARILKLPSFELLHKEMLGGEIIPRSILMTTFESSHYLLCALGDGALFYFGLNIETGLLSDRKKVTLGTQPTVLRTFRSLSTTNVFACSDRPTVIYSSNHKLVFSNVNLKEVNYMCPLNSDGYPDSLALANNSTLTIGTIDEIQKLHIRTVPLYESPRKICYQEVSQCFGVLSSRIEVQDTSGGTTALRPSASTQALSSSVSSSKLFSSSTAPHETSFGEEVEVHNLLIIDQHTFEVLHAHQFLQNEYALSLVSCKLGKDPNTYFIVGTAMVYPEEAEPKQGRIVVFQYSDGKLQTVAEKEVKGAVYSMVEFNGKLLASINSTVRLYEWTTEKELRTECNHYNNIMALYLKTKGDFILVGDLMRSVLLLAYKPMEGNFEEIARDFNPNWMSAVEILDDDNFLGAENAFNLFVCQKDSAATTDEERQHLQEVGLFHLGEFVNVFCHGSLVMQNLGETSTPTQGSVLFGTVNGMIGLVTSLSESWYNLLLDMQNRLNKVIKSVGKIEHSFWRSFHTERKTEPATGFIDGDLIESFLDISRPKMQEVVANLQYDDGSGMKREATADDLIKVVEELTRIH
valueKind: inhibition at 0.2 µM

compound	valueKind	valueObserved
CNc1ccc(C(=O)Nc2ccc(N(C)C)nn2)c(NC2CCC3(C2)CN(C(=O)CCN2CCN(c4ccc(Nc5ncc6c(C)c(C(C)=O)c(=O)n(C7CCCC7)c6n5)nc4)CC2)C3)n1 (stereo not drawn)	inhibition at 0.2 µM	> 80%
CNc1ccc(C(=O)Nc2cccc(C3CC3)n2)c(NCCCCCNC(=O)CN2CCN(c3ccc(Nc4ncc5c(C)c(C(C)=O)c(=O)n(C6CCCC6)c5n4)nc3)CC2)n1	inhibition at 0.2 µM	50 to 80%

Let us examine a further case.
inhibition at 0.2 µM lookup needed for `CC(=O)c1c(C)c2cnc(Nc3ccc(N4CCN(CC5(C(=O)N6CC7(CC(Nc8nc(NC(C)C)ccc8C(=O)Nc8cn(C)c(C9CC9)n8)C7)C6)CC5)CC4)cn3)nc2n(C2CCCC2)c1=O` , thanks.
< 30%

---

Target: CDK4 (Homo sapiens, UniProt P11802+Q16531)
Assay: HiBiT detection of HiBiT-tagged CDK4 protein level in MCF7 cells, 16 hours (Table 8)
Assay type: cell-based
Design: expressed in transfected cells; host or cells: MCF7
Settings: 10 nM, MCF7 cells stably expressing HiBiT tagged target proteins, read-out: % CDK4 Relative Level (10 nM)
Sequence (P11802 whole entry): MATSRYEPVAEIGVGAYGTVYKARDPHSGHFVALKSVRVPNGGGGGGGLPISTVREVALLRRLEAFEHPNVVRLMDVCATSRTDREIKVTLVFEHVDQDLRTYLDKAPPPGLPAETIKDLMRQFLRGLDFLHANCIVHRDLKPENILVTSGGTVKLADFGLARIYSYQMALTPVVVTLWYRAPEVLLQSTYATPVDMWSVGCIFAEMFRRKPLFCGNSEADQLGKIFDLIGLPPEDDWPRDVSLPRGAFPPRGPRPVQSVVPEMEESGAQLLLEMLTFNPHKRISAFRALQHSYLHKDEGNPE
Sequence (P24385 whole entry partner): as the sequence (P24385 whole entry partner) above
Sequence (Q16531 2-1140 limits assumed): as the sequence (Q16531 2-1140 limits assumed) above
valueKind: activity at 0.01 µM

compound	valueObserved
CNc1ccc(C(=O)Nc2ccc(N(C)C)nn2)c(NCCCC(=O)N2CCN(c3ccc(Nc4ncc(F)c(-c5cc(F)c6nc(C)n(C(C)C)c6c5)n4)nc3)CC2)n1	> 85%
CNc1ccc(C(=O)Nc2ccc(N(C)C)nn2)c(NCCCCCNC(=O)CN2CCN(c3ccc(Nc4ncc5cc6n(c5n4)C4(CCCCC4)CNC6=O)nc3)CC2)n1	> 85%
CNc1ccc(C(=O)Nc2ccc(N(C)C)nn2)c(NCCOCCC(=O)N2CCN(c3ccc(Nc4ncc5cc6n(c5n4)C4(CCCCC4)CNC6=O)nc3)CC2)n1	> 85%
CNc1ccc(C(=O)Nc2ccc(N(C)C)nn2)c(NCCCCCCC(=O)N2CCN(c3ccc(Nc4ncc(F)c(-c5cc(F)c6nc(C)n(C(C)C)c6c5)n4)nc3)CC2)n1	> 85%
CC(=O)c1c(C)c2cnc(Nc3ccc(CN4CCN(CC(=O)N5CC6(CC(Nc7nc(NC(C)C)ccc7C(=O)Nc7ccc(N(C)C)nn7)C6)C5)CC4)cn3)nc2n(C2CCCC2)c1=O	> 85%

Suppose we examine the compound [2H]C([2H])([2H])Nc1ccc(C(=O)Nc2cc(C)n(C)n2)c(NC2CC3(C2)CN(C(=O)CN2CCC4(CCN(c5ccc(Nc6ncc7c(C)c(C(C)=O)c(=O)n(C8CCCC8)c7n6)nc5)C4)C2)C3)n1 (centres unmarked) ; what activity at 0.01 µM value has been reported?
55 to 85%

Which activity at 0.01 µM value belongs to `CNc1ccc(C(=O)Nc2ccc(N(C)C)nn2)c(NCCCCC(=O)N2CCN(c3ccc(Nc4ncc5cc(C(=O)N(C)C)n(C6CCCC6)c5n4)nc3)CC2)n1` ?
> 85%

Returns the measured activity at 0.01 µM for the input compound. Input: `CNc1ccc(C(=O)Nc2ccc(N(C)C)nn2)c(NCCCC(=O)N2CCN(Cc3ccc(Nc4ncc(F)c(-c5cc(F)c6nc(C)n(C(C)C)c6c5)n4)nc3)CC2)n1`
55 to 85%

Quick one: activity at 0.01 µM for `CNc1ccc(C(=O)Nc2ccc(N(C)C)nn2)c(NCCOCCNC(=O)CN2CCN(Cc3ccc(Nc4ncc(F)c(-c5cc(F)c6nc(C)n(C(C)C)c6c5)n4)nc3)CC2)n1` ?
> 85%

// lookup activity at 0.01 µM for CC(=O)c1c(C)c2cnc(Nc3ccc(N4CCC5(CCN(CC(=O)N6CC7(CC(Nc8nc(NC(C)C)ccc8C(=O)Nc8ccc(N(C)C)nn8)C7)C6)C5)C4)cn3)nc2n(C2CCCC2)c1=O (centres unmarked)
55 to 85%

# input compound: CC(=O)c1c(C)c2cnc(Nc3ccc(CN4CCC(CC(=O)NC5CC6(C5)CC(Nc5nc(NC(C)C)ccc5C(=O)Nc5ccc(N(C)C)nn5)C6)C4)cn3)nc2n(C2CCCC2)c1=O (centres unmarked) ; wanted: its activity at 0.01 µM
55 to 85%
